These data points were gathered from patent US10981932B2.

System: SUDHL5
experimentSummary: Anti-proliferative effect (CellTiter-Glo, 72 h), SUDHL5
Assay type: cell-based
experimentalConditions: Homo sapiens, SU-DHL-5, 72 h, SUDHL5 cells, antiproliferation, 72 h incubation, median, read-out: Antiproli SUDHL5 [M] (median)
measureName: IC50 (M)
I only need the number, in M, no unit after it.

{"columns": ["molecule", "measureName", "quantitativeResult"],
 "data": [
  ["Cc1nn(C)c2c1-c1cccc3c(CCCOc4cccc5ccccc45)c(C(=O)O)n(c13)CCCN(C)C2 (racemic)", "IC50", "1.04e-05"],
  ["CCn1nc2c(c1C1CC1)-c1cccc3c(CCCOc4cccc5ccccc45)c(C(=O)O)n(c13)CCCCOC2 (single isomer, unassigned; enantiomer 1) [Example 082]", "IC50", "1.81e-05"],
  ["Cn1nc(CN2CCOCC2)c2c1COCCCCn1c(C(=O)O)c(CCCOc3cccc4ccccc34)c3cccc-2c31 (racemic) [Example 135]", "IC50", "7.26e-06"],
  ["COCc1nn(C)c2c1-c1cccc3c(CCCOc4cccc5ccccc45)c(C(=O)O)n(c13)CCCN(C)C2 (single isomer, unassigned; enantiomer 1)", "IC50", "3.92e-06"],
  ["COCCn1nc(C2CC2)c2c1COCCCCn1c(C(=O)O)c(CCCOc3cccc4c3CCCC4)c3cccc-2c31 (racemic) [Example 164]", "IC50", "1.6e-05"]
]}

Need IC50, item Cc1nn(C)c2c1-c1cccc3c(CCCOc4cccc5cc(F)ccc45)c(C(=O)O)n(c13)CCCOC2 (racemic) [Example 046]
6.27e-06
